# method_notes: inducers of caspase signal, alternate A1 construct – cell-based, MEF, plate reader, dry powder, set 2, orthogonal assay for A1 inhibitor project, dose response (AID 504342)
# setup_conditions: MEF Flag-A1-IRES-BIM, caspase-Glo luminescence, 3 h; at 35 µM (top of the series)
caspase activation overview
quantity_measured: caspase activation (%)

| molecule | data_value |
| --- | --- |
| O=C(Oc1cccc(/C=N/Nc2nc(Nc3ccccc3)nc(N3CCOCC3)n2)c1)c1ccco1 | 2.95 |
| Cc1ccc(Sc2c([N+](=O)[O-])c(=O)oc3ccccc23)cc1 | -2.87 |
| Cc1ccc(Nc2c([N+](=O)[O-])c(=O)oc3ccccc23)cc1 | 0.875 |
| O=c1oc2ccccc2c(N2CCCCC2)c1[N+](=O)[O-] | -2.6 |
| CCOCCCNc1c([N+](=O)[O-])c(=O)n(C)c2ccccc12 | 1.28 |
| CCOC(=O)N1CCN(c2c([N+](=O)[O-])c(=O)n(C)c3ccccc23)CC1 | -0.543 |
| O=[N+]([O-])c1cnc2ccccc2c1Sc1ccccc1 | -1.68 |
| O=c1oc2ccccc2c(Sc2ccccc2)c1[N+](=O)[O-] | -6.2 |
| C/C1=C/C(=O)O[C@@H]2C[C@@H](CC[C@H](C)/C=C\CC1)O[C@@](O)(C1CSC(=O)N1)C2 (stereo not given in full) | 2.78 |
| CCSc1c([N+](=O)[O-])c(=O)oc2ccccc12 | -1.44 |

----------
# method_notes: inducers of caspase signal, alternate A1 construct – cell-based, MEF, plate reader, dry powder, set 2, orthogonal assay for A1 inhibitor project, dose response (AID 504342)
# setup_conditions: MEF Flag-A1-IRES-BIM, caspase-Glo luminescence, 3 h; at 35 µM (top of the series)
Overview of recorded caspase activation for various compounds
quantity_measured: caspase activation (%)

| substance_smiles | quantity_measured | unit_abbrev | data_value |
| --- | --- | --- | --- |
| Cn1c(=O)c([N+](=O)[O-])c(Nc2ccc(Cl)cc2)c2ccccc21 | caspase activation | % | -0.882 |
| O=c1oc2ccccc2c(Cl)c1[N+](=O)[O-] | caspase activation | % | -5.93 |
| CN1C(=O)C(C)(C)N(Cc2ccccc2)c2ccccc21 | caspase activation | % | 1.13 |
| Cc1ccc(Sc2cc(=O)n(C)c3ccccc23)cc1 | caspase activation | % | -6.4 |
| Cc1ccc(Nc2c([N+](=O)[O-])c(=O)n(C)c3ccccc23)cc1 | caspase activation | % | -0.435 |
| O=c1oc2ccccc2c(Nc2cc(Cl)cc(Cl)c2)c1[N+](=O)[O-] | caspase activation | % | -0.897 |
